Quick reference: IC50 of the listed items.
Tested on: Leishmania donovani
Test: Antileishmanial activity against promastigote stage Leishmania donovani assessed as growth inhibition after 72 hrs by Alamar blue assay
Assay type: functional, organism-based
MEASURED_ENDPOINT: IC50 (µg/mL)

INSERT INTO results (compound, measured_endpoint, value_observed) VALUES
  ('CCCCCCC[C@@H]1C[C@@H]2CCC3=C(C(=O)OCCCCCCC[C@@H]4C[C@@H]5CC[C@@H]6C[C@H](C)NC(=N4)N65)C(C)N=C(N1)N32 (some centres undefined)', 'IC50', 8.5),
  ('CCCCCCCCC[C@@H]1C[C@@H]2CC[C@H]3[C@@H](C(=O)OC(C)CCCCCCC[C@@H]4C[C@@H]5CC[C@@H]6C[C@H](C)NC(=N4)N65)[C@@H](C)N=C(N1)N23 (some centres undefined)', 'IC50', 1.9),
  ('CCCCCCC[C@H]1C[C@H]2CCC3=C(C(=O)OCCCCNC(=N)N)C(CCCCC)N=C(N1)N32 (some centres undefined)', 'IC50', 5.5),
  ('CCC1C=CCC[C@@]2(C[C@@H]3CC[C@@H]4[C@H](C(=O)OCCCCCCCCCCCCCCCC(=O)N(CCCN)C[C@@H](O)CCN)[C@]5(CCC[C@@H](C)O5)NC(=N2)N34)O1 (some centres undefined)', 'IC50', 6.8);
